Target: T1, EphB4 on the surface of A2780cp20 cells (human, UniProt P54760 16-987)
T1 construct: whole, on cells; also called EphB4 in human HeyA8 ovarian cancer cells; EphB4 in human ovarian cancer cells A2780cp20
T1 sequence (looked up): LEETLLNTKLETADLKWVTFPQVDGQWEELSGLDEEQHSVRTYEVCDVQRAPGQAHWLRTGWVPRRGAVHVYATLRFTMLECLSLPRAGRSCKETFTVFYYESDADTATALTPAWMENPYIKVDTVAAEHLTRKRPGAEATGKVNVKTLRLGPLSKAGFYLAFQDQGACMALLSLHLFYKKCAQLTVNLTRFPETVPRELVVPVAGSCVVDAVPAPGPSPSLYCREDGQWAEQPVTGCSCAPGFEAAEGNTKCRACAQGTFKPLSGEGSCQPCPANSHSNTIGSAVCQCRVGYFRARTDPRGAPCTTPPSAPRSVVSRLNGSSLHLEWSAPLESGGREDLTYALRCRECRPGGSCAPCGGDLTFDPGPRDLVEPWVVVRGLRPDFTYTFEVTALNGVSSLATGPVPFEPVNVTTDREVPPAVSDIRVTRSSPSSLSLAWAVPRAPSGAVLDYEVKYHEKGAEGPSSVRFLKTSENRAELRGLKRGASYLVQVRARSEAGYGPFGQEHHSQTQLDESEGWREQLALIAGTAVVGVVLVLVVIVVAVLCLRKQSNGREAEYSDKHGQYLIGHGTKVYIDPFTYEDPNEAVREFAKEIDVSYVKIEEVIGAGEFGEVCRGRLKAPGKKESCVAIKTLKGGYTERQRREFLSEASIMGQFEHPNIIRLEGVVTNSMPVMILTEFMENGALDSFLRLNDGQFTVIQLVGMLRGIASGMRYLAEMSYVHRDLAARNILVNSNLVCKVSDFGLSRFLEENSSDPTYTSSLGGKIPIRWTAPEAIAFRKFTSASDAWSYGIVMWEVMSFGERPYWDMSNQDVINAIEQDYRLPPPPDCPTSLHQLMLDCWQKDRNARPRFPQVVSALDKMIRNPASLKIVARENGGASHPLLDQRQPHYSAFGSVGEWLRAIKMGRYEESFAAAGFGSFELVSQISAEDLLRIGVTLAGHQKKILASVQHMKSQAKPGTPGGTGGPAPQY
Test: flow cytometry competition: A2780cp20 cells with EFNB2-Fc (20 nM) and BIDEN-AP (0-100 µM), PE-labeled anti-Fc detection
Square brackets hold non-standard residues; d marks the D form. Ends that are not written are not given here.

{"binder": "TN[dY]LFSPNGPIARAW (Synthetic 15-mer made by solid phase synthesis on Rink resin; also called EphB4 agonist peptide) [BIDEN-AP (bi-directional ephrin agonist peptide), TN(dY)LFSPNGPIARAW]", "IC50": "~1000 nM"}

Numbers sourced from patent US20220213165A1.
